# Test system: 266 human PDZ domains (PDZome)
# measurementDescription: Holdup assay (chromatographic retention, PDZome-binding profile, BI)
# Parameters: key: binding intensity: 0.00 = no binding, 1.00 = maximal binding
# conditionSet: PDZ domain PDLIM7-1
*1 amine or outer side, *2 acyl side, *3 side chain or, on linkers, in order; H or OH if unused. Where a SMILES comes first, the peptide text is derived from it. The star is where a group is joined. X1 = O=C(CCCC[C@@H]1SC[C@@H]2NC(=O)N[C@@H]21)NCCCOCCOCCOCCCN*; Suc = O=C(CCC(=O)[*:2])[*:1]
quantityMeasured: BI
Just the number.

Study these solved cases before continuing.
CC[C@H](C)[C@H](NC(=O)[C@H](CCC(N)=O)NC(=O)[C@@H](NC(=O)[C@H](Cc1c[nH]cn1)NC(=O)[C@H](CCC(N)=O)NC(=O)[C@H](CC(=O)O)NC(=O)[C@H](CCC(=O)O)NC(=O)[C@H](CC(=O)O)NC(=O)CCC(=O)NCCCOCCOCCOCCCNC(=O)CCCC[C@@H]1SC[C@@H]2NC(=O)N[C@@H]21)[C@@H](C)O)C(=O)N[C@H](C(=O)N[C@@H](CCCCN)C(=O)N[C@H](C(=O)O)C(C)C)[C@@H](C)O [PTEN_11]	0.032
CC[C@H](C)[C@H](NC(=O)[C@H](CCC(N)=O)NC(=O)[C@@H](NC(=O)[C@H](Cc1c[nH]cn1)NC(=O)[C@H](CCC(N)=O)NC(=O)[C@H](CC(=O)O)NC(=O)[C@H](CCC(=O)O)NC(=O)[C@H](CC(=O)O)NC(=O)CCC(=O)NCCCOCCOCCOCCCNC(=O)CCCC[C@@H]1SC[C@@H]2NC(=O)N[C@@H]21)[C@@H](C)O)C(=O)N[C@H](C(=O)N[C@@H](CCCNC(=N)N)C(=O)N[C@H](C(=O)O)C(C)C)[C@@H](C)O [PTEN_KR] ({X1-Suc}-DEDQHTQITRV-OH)	-0.042
CC[C@H](C)[C@H](NC(=O)[C@H](CCC(N)=O)NC(=O)[C@@H](NC(=O)[C@H](Cc1c[nH]cn1)NC(=O)[C@H](CCC(N)=O)NC(=O)[C@H](CC(=O)O)NC(=O)[C@H](CCC(=O)O)NC(=O)[C@H](CC(=O)O)NC(=O)[C@H](Cc1ccccc1)NC(=O)[C@@H]1CCCN1C(=O)CCC(=O)NCCCOCCOCCOCCCNC(=O)CCCC[C@@H]1SC[C@@H]2NC(=O)N[C@@H]21)[C@@H](C)O)C(=O)N[C@H](C(=O)N[C@@H](CCCCN)C(=O)N[C@H](C(=O)O)C(C)C)[C@@H](C)O [PTEN_13] ({X1-Suc}-PFDEDQHTQITKV-OH)	0.039

Consider the additional compound presented here.
Here CC[C@H](C)[C@H](NC(=O)[C@H](CCC(N)=O)NC(=O)[C@@H](NC(=O)[C@H](Cc1c[nH]cn1)NC(=O)[C@H](CCC(N)=O)NC(=O)[C@H](CC(=O)O)NC(=O)[C@H](CCC(=O)O)NC(=O)[C@H](CC(=O)O)NC(=O)CCC(=O)NCCCOCCOCCOCCCNC(=O)CCCC[C@@H]1SC[C@@H]2NC(=O)N[C@@H]21)[C@@H](C)O)C(=O)N[C@H](C(=O)N[C@@H](CCCCNC(C)=O)C(=O)N[C@H](C(=O)O)C(C)C)[C@@H](C)O [PTEN_Ac] was tested on 266 human PDZ domains (PDZome), and its BI came to -0.025
